measurement_notes: Cytotoxicity against human THP-1 cells assessed as reduction in cell viability incubated for 72 hrs by alamarblue staining based analysis
Type: toxicity
Below is a list of entries, each paired with its recorded CC50 at 72 h value.

[
  {
    "query_smiles": "O=C(c1cccc(O)c1O)N1CCN(c2cnccn2)CC1",
    "CC50 at 72 h": "> 3.33 mM"
  },
  {
    "query_smiles": "O=C(/C=C/c1ccc(O)c(O)c1)N1CCN(c2cnccn2)CC1",
    "CC50 at 72 h": "> 3.06 mM"
  },
  {
    "query_smiles": "Oc1ccc(N2CCN(c3cnccn3)CC2)cc1",
    "CC50 at 72 h": "> 3.9 mM"
  },
  {
    "query_smiles": "O=C(c1cccnc1)N1CCN(c2cnccn2)CC1",
    "CC50 at 72 h": "> 3.71 mM"
  }
]

----------
System: Trypanosoma cruzi
measurement_notes: Antitrypanosomal activity against Trypanosoma cruzi Tulahuen infected in mouse L929 cells assessed as parasite growth inhibition incubated for 96 hrs
Assay type: functional, organism-based
condition_context: L929, 96 h

[
  {
    "query_smiles": "O=C(c1ccc([N+](=O)[O-])cc1)N1CCN(c2cnccn2)CC1",
    "IC50": "> 175 µM"
  },
  {
    "query_smiles": "O=C(c1ccccc1O)N1CCN(c2cnccn2)CC1",
    "IC50": "> 175 µM"
  },
  {
    "query_smiles": "COc1cc(F)ccc1C(=O)N1CCN(c2cnccn2)CC1",
    "IC50": "> 175 µM"
  },
  {
    "query_smiles": "O=C(c1ccc(O)cc1)N1CCN(c2cnccn2)CC1",
    "IC50": "> 175 µM"
  },
  {
    "query_smiles": "O=C(c1ccccc1)N1CCN(c2cnccn2)CC1",
    "IC50": "> 175 µM"
  }
]

----------
measurement_notes: Cytotoxicity against human THP-1 cells assessed as reduction in cell viability incubated for 72 hrs by alamarblue staining based analysis
Format: toxicity
Quick rule for you: CC50 at 72 h under 2000 µM gets y, anything else gets n.

[
  {
    "query_smiles": "COc1ccc(Cl)cc1C(=O)N1CCN(c2cnccn2)CC1",
    "assigned_class": "y"
  },
  {
    "query_smiles": "COc1ccc(C(=O)N2CCN(c3cnccn3)CC2)cc1OC",
    "assigned_class": "y"
  },
  {
    "query_smiles": "O=C(c1cccc(C(F)(F)F)n1)N1CCN(c2cnccn2)CC1",
    "assigned_class": "y"
  },
  {
    "query_smiles": "COc1ccc(C(=O)N2CCN(c3cnccn3)CC2)cn1",
    "assigned_class": "y"
  },
  {
    "query_smiles": "O=C(c1ccccc1O)N1CCN(c2cnccn2)CC1",
    "assigned_class": "n"
  },
  {
    "query_smiles": "O=C(N1CCN(c2cnccn2)CC1)n1ccnc1",
    "assigned_class": "n"
  },
  {
    "query_smiles": "N#Cc1ccc(C(=O)N2CCN(c3cnccn3)CC2)cc1",
    "assigned_class": "y"
  },
  {
    "query_smiles": "COc1cc(F)ccc1C(=O)N1CCN(c2cnccn2)CC1",
    "assigned_class": "y"
  }
]

----------
measurement_notes: Selectivity index, ratio of CC50 for cytotoxicity against human THP-1 cells assessed as reduction in cell viability to IC50 for antileishmanial activity against […] stage of Leishmania braziliensis MHOM/BR/75/M2904 infected in human THP-1 cells assessed as parasite growth inhibition
Type: toxicity, cell-based
condition_context: read-out: Ratio CC50/IC50
Overview of reported selectivity ratio across a group of compounds:

[
  {
    "query_smiles": "COc1ccc(S(=O)(=O)N2CCN(c3cnccn3)CC2)cc1",
    "censor_symbol": ">",
    "selectivity ratio": 32
  },
  {
    "query_smiles": "O=C(c1ccc(O)cn1)N1CCN(c2cnccn2)CC1",
    "censor_symbol": ">",
    "selectivity ratio": 37
  },
  {
    "query_smiles": "O=C(c1ccc(O)nc1)N1CCN(c2cnccn2)CC1",
    "censor_symbol": ">",
    "selectivity ratio": 19
  },
  {
    "query_smiles": "O=C(c1ccc(-n2cnnn2)cc1)N1CCN(c2cnccn2)CC1",
    "censor_symbol": "=",
    "selectivity ratio": 293
  },
  {
    "query_smiles": "O=C(c1ccccn1)N1CCN(c2cnccn2)CC1",
    "censor_symbol": "=",
    "selectivity ratio": 32
  },
  {
    "query_smiles": "COc1ccc(C(=O)N2CCN(c3cnccn3)CC2)cc1OC",
    "censor_symbol": "=",
    "selectivity ratio": 21
  },
  {
    "query_smiles": "COc1cc(F)ccc1C(=O)N1CCN(c2cnccn2)CC1",
    "censor_symbol": "=",
    "selectivity ratio": 104
  },
  {
    "query_smiles": "O=C(c1cccc(O)c1O)N1CCN(c2cnccn2)CC1",
    "censor_symbol": ">",
    "selectivity ratio": 16600
  },
  {
    "query_smiles": "COc1ccc(C(=O)N2CCN(c3cnccn3)CC2)c(OC)c1",
    "censor_symbol": "=",
    "selectivity ratio": 16
  }
]

----------
selectivity ratio values for the compounds below.
measurement_notes: Selectivity index, ratio of CC50 for cytotoxicity against human THP-1 cells assessed as reduction in cell viability to IC50 for antileishmanial activity against […] stage of Leishmania braziliensis MHOM/BR/75/M2904 infected in human THP-1 cells assessed as parasite growth inhibition
Format: toxicity, cell-based
condition_context: read-out: Ratio CC50/IC50

[
  {
    "query_smiles": "Oc1ccc(N2CCN(c3cnccn3)CC2)cc1",
    "selectivity ratio": "> 144"
  },
  {
    "query_smiles": "O=C(c1cccnc1)N1CCN(c2cnccn2)CC1",
    "selectivity ratio": "> 28"
  },
  {
    "query_smiles": "O=C(/C=C/c1ccc(O)c(O)c1)N1CCN(c2cnccn2)CC1",
    "selectivity ratio": "> 41"
  }
]

----------
In this section we review reported selectivity ratio values for a set of molecules.
measurement_notes: Selectivity index, ratio of CC50 for cytotoxicity against human THP-1 cells assessed as reduction in cell viability to IC50 for antileishmanial activity against […] stage of Leishmania infantum MHOM/BR/1974/PP75 infected in human THP-1 cells assessed as parasite growth inhibition
Format: toxicity, cell-based
condition_context: read-out: Ratio CC50/IC50

[
  {
    "query_smiles": "COc1ccc(S(=O)(=O)N2CCN(c3cnccn3)CC2)cc1",
    "selectivity ratio": "> 24"
  },
  {
    "query_smiles": "O=C(/C=C/c1ccc(O)c(O)c1)N1CCN(c2cnccn2)CC1",
    "selectivity ratio": "> 29"
  },
  {
    "query_smiles": "O=C(c1ccc(O)cn1)N1CCN(c2cnccn2)CC1",
    "selectivity ratio": "> 27"
  },
  {
    "query_smiles": "O=C(c1cccc(O)c1O)N1CCN(c2cnccn2)CC1",
    "selectivity ratio": "> 1190"
  },
  {
    "query_smiles": "O=C(c1cccnc1)N1CCN(c2cnccn2)CC1",
    "selectivity ratio": "> 26"
  }
]
